Entry source: PubChem BioAssay (NCI)

Test: NCI Yeast Anticancer Drug Screen. Data for the sgs1 mgt1 strain (AID 161);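 note: 0% = growth of cultures given vehicle only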
Conditions: S. cerevisiae sgs1 mgt1 strain, at 50.0 µM, hits give high values
The panel holds about 79,000 compounds, 15% with a hit somewhere; the sample as a whole holds those more often.
Recorded growth inhibition for the following compounds
quantity name: growth inhibition (%)

COc1nc2c(c(=O)n1C)N=C(c1ccccc1)[C@H](C(CC(=O)c1ccccc1)c1ccccc1)C(c1ccccc1)N2 (stereo partly specified) ... 53.7
O=C(/C=C\c1cccc(C(F)(F)F)c1)c1ccccc1 ... 36.4
CC(=O)Nc1ccc2c(c1)Cc1cc(N=C3C=CC(=O)O3)ccc1-2 ... 49.1
CCOC1=C/C(=N\Nc2ccc([N+](=O)[O-])cc2)CCC1 ... 48.6
S=c1[nH]c2cc3ccccc3cc2[nH]1 ... 68.8
CC1=C(C(=O)NCc2ccccc2)C(c2ccccc2)C(C(=O)NCc2ccccc2)=C(C)N1 ... 70.7
COC(=O)CC1(O)C(/C=C/c2ccccc2)C(C(=O)OC)C(=O)C(C(=O)OC)C1C(=O)OC (stereo unspecified) ... 48
CN1CCN(C(=O)/C=C/C(=O)c2ccccc2)CC1 ... 95.5
Oc1ccc(O)c(Cc2ccccc2)c1 ... 92.5
O=C(/C=C(/c1ccccc1)N1CCCCC1)c1ccccc1 ... 82.1
CC12C(=O)OC(=O)C(c3ccccc31)c1ccccc12 ... 97.2
C[C@@](O)(/C=C/[C@H]1CC=CC(=O)O1)[C@@H](C[C@@H](O)\C=C/C=C\C=C\CO)OP(=O)(O)O ... 73
Nc1nc2ccc(NCc3ccc(C(=O)NC(CCC(=O)O)C(=O)O)cc3)cc2c(=O)[nH]1 (stereo unspecified) ... 25
N#CC(=Nc1ccccc1F)Nc1ccccc1F ... 12.1
O=C(O)c1ccccc1/C=N/N=C1c2ccccc2-c2ccccc21 ... 50
CNC(=O)OCc1c(COC(=O)NC)c(-c2ccc(Cl)cc2)n2c1CCC2 ... 57.5
CC(=O)OC1CCC2(C)C(=CC(C3C=C4CC(OC(C)=O)CCC4(C)C4=C3C3CC5OC6(CCC(C)CO6)C(C)C5C3(C)CC4)C3=C2CCC2(C)C3CC3OC4(CCC(C)CO4)C(C)C32)C1 (stereo unspecified) ... 90.7
Oc1ccc(SCc2ccc(NCc3ccccc3)cc2)cc1 ... 77.7
CC(=O)SC(C[N+](=O)[O-])c1ccccc1 (stereo unspecified) ... 95.8
Clc1ccc(NCNC2Nc3ccccc3N2)cc1Cl ... 8.15
O=C1CSC(c2cccc(Cl)c2)N1c1ccc(-c2ccc(-n3c(-c4ccccc4)nc4ccccc4c3=O)cc2)cc1 (stereo unspecified) ... 43.2
